System: CP260
Test: qHTS profiling for inhibitors of Plasmodium falciparum proliferation (AID 504749); also: nearly all actives have a fitted effect of over 60% in size
Settings: P. falciparum in erythrocytes, SYBR Green DNA, 72 h; series mostly up to 28.7 µM
Inconclusive results are not listed. Calls of active or inactive are those of the source. Calls follow the shape of the dose curve; as a rule, active = well fitted inhibition curve with a large enough effect; inconclusive = small, poorly fitted or top-dose-only effect; inactive = flat fitted curve, though single readings scatter.
Please state which outcome applies, choosing from active, inactive

Solved entries (count: 3):
compound	category
CC(N)Cc1ccc(O)cc1 (configuration not stated)	inactive
COc1ccc2c(c1OC)C(=O)OC2C1c2cc3c(cc2CCN1C)OCO3 (configuration not stated)	inactive
Clc1ccc(C2(Cn3cncn3)OCCO2)c(Cl)c1	inactive

What was the test verdict on CCCN1CCCC2Cc3[nH]ncc3CC21 (configuration not stated) ?
inactive

What was the test verdict on c1ccc(C2(N3CCCC3)CCCCC2)cc1 ?
active

What was the test verdict on [O]=[Cr](=[O])([OH])[O][Cr](=[O])(=[O])[OH] ?
active

What was the test verdict on c1ccc2sc(SNC3CCCCC3)nc2c1 ?
inactive

====

System: Zika virus NS2B-NS3 protease (unlinked)
Test: Optimization of GU AMC qHTS for Zika virus inhibitors: Unlinked NS2B-NS3 protease assay (AID 1347151); also: nearly all actives have a fitted effect of over 80% in size
Conditions: recombinant ZIKV NS2B-NS3 protease, fluorogenic AMC substrate; series mostly up to 52.5 µM
Results filed as inconclusive are left out. Active and inactive are the calls of the source. Calls come from the whole dose curve; as a rule, active = well fitted inhibition curve with a large enough effect; inconclusive = small, poorly fitted or top-dose-only effect; inactive = no such curve, though single readings can be large or run the other way.
Please state which outcome applies, choosing from active, inactive

Solved entries (count: 4):
compound	category
c1ccc2c(c1)[I+]c1ccccc1-2	inactive
CCCN1CCc2cc(O)cc3c2[C@H]1Cc1ccc(O)c(O)c1-3	active
N[C@@H](Cn1oc(=O)[nH]c1=O)C(=O)O	inactive
NC(C(=O)O)c1cc(=O)[nH]o1 (stereo unspecified)	inactive

What was the test verdict on CCCN(CCC)[C@@H]1CCc2cccc(O)c2C1 ?
inactive

What was the test verdict on CC(N)Cc1c[nH]c2ccc(OCc3cccs3)cc12 (stereo unspecified) ?
inactive

What was the test verdict on CCCN1CC[C@@H]2c3cc(O)ccc3CC[C@@H]21 ?
inactive

What was the test verdict on Cc1cc([C@@H]2CCCN2C)on1 ?
inactive

What was the test verdict on Nc1ccc(CCN2CCN(c3cccc(C(F)(F)F)c3)CC2)cc1 ?
inactive

What was the test verdict on NNC(=O)c1ccc(O)cc1 ?
inactive

What was the test verdict on C[N+](C)(C)CC#CCOC(=O)Nc1cccc(Cl)c1 ?
inactive

What was the test verdict on Clc1cc(I)cc(Cl)c1NC1=NCCN1 ?
inactive

What was the test verdict on CNc1ccc2oc(C[C@H]3O[C@@]4(CC[C@H]3C)O[C@H]([C@H](C)C(=O)c3ccc[nH]3)[C@H](C)C[C@H]4C)nc2c1C(=O)O ?
active

What was the test verdict on NCCCP(=O)(O)O ?
inactive

====

Target: Glutathione peroxidase 1 (Homo sapiens) (UniProt P07203)
Sequence (P07203 whole entry, looked up): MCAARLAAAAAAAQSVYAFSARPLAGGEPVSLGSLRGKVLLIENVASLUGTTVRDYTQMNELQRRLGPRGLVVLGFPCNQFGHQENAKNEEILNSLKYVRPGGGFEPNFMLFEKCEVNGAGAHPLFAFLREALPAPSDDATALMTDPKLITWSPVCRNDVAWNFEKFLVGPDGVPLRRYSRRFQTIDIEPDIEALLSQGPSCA
Assay: Primary qHTS Assay for Inhibitors of Recombinant Selenoprotein Glutathione Peroxidase 1 (GPX1) (AID 1845191); also: nearly all actives have a fitted effect of over 65% in size
Settings: recombinant GPX1, GR-coupled NADPH fluorescence, 15 min; series mostly up to 48.8 µM
Results filed as inconclusive are left out. Calls of active or inactive are those of the source. Calls follow the shape of the dose curve; as a rule, active = well fitted inhibition curve with a large enough effect; inconclusive = small, poorly fitted or top-dose-only effect; inactive = flat fitted curve, though single readings scatter.

molecule	outcome
CP(=O)(O)C1=CCNCC1	inactive
NC(=O)COc1c(F)cc(SCCNS(=O)(=O)c2ccccc2)cc1F	inactive
O=C(NC1CN2CCC1CC2)c1cc2ccoc2cn1 (stereo not given)	inactive
C[C@@]12C[C@@H](c3ccoc3)OC(=O)C1CC[C@]1(C)[C@H]2[C@H]2C=C[C@]1(O)C(=O)O2 (stereo not given in full)	inactive

====

Assay: qHTS for differential inhibitors of proliferation of Plasmodium falciparum line GB4 (AID 1816);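 also: parasite growth measured after 72 h incubation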; also: potency is read from the fitted curve at half-maximal effect
Details: Plasmodium falciparum GB4 proliferation inhibition; series mostly up to 28.7 µM
Results filed as inconclusive are left out. Activity calls are given as the source filed them. Calls come from the whole dose curve; as a rule, active = well fitted curve in the direction sought with a large enough effect; inconclusive = small, poorly fitted or top-dose-only effect, or another doubt; inactive = no such curve, though single readings can be large or run the other way.
experimentalReadout: Potency

Examples from the recorded data:
compound	Potency
C[C@H](N)CN1CCc2ccc(Br)cc21	1.26 µM (active)
NC(Cc1cc(O)c(O)cc1O)C(=O)O (stereo unspecified)	inactive
Oc1ccc2c3c1O[C@H]1c4oc5ccccc5c4C[C@@]4(O)C(C2)N(CC2CC2)CCC314 (stereo partly specified)	3.16 µM (active)
COc1cc(CC(C)N)c(OC)cc1I (stereo unspecified)	6.31 µM (active)
O=[N+]([O-])c1cc(O)c(O)c([N+](=O)[O-])c1	inactive

Requested field: Potency. Item: O=C1C=CC(=O)C=C1
inactive

Requested field: Potency. Item: NNC(=O)c1ccc(O)cc1
inactive

Requested field: Potency. Item: NCC(O)c1cc(O)c(O)cc1F (stereo unspecified)
inactive

Requested field: Potency. Item: CCCN(CCC)C1CCc2cccc(O)c2C1 (stereo unspecified)
inactive

Requested field: Potency. Item: Oc1ccc2c3c1O[C@H]1c4[nH]c5ccccc5c4C[C@@]4(O)C(C2)N(CC2CC2)CCC314 (stereo partly specified)
8.91 µM (active)

Requested field: Potency. Item: C=CCN1C[C@@H](C)N([C@H](c2ccc(C(=O)N(CC)CC)cc2)c2cccc(OC)c2)C[C@@H]1C
3.98 µM (active)

====

Biological target: Cytochrome P450 2C9 (Homo sapiens)
Experiment: Cytochrome P450 family 2 subfamily C member 9 (CYP2C9) small molecule antagonists: luciferase biochemical (cell-free) qHTS assay (AID 1645842); also: nearly all actives have a fitted effect of over 55% in size; also: potency is read from the fitted curve at half-maximal effect
Details: P450-Glo CYP2C9 enzyme assay, luciferin luminescence; series mostly up to 57.4 µM
Records with an inconclusive call do not appear. Calls of active or inactive are those of the source. Calls follow the shape of the dose curve; as a rule, active = well fitted inhibition curve with a large enough effect in the repeat runs; inconclusive = weak or mixed curves; inactive = no such curve, though single readings can be large or run the other way.
experimentalReadout: Potency

Examples from the recorded data:
molecule	Potency
O=C1C2CC=CCC2C(=O)N1SC(Cl)(Cl)Cl (stereo not given)	6.74 µM (active)
C[C@H](NC(=O)Cc1cc(F)cc(F)c1)C(=O)N[C@@H]1N=C(c2ccccc2)c2ccccc2N(C)C1=O	inactive
Cc1cn(C[C@H](N)C(=O)O)c(=O)n(Cc2cc(-c3ccccc3)sc2C(=O)O)c1=O	inactive
CC1CCC(C(C)C)C(OC(=O)c2ccccc2N)C1 (stereo not given)	2.68 µM (active)

We next turn to a different molecule, shown below.
Requested field: Potency. Item: C[CH2][Hg][S]c1ccccc1C(=O)O
3.47 µM (active)

====

System: CP201
Experiment: qHTS profiling for inhibitors of Plasmodium falciparum proliferation (AID 504749); also: nearly all actives have a fitted effect of over 60% in size
Conditions: P. falciparum in erythrocytes, SYBR Green DNA, 72 h; series mostly up to 28.7 µM
Results filed as inconclusive are left out. Active and inactive are the calls of the source. The call rests on the fitted dose curve; in most records, active means well fitted inhibition curve with a large enough effect; inconclusive means small, poorly fitted or top-dose-only effect; inactive means flat fitted curve, though single readings scatter.
Please state which outcome applies, choosing from Yes = active, No = inactive

Solved entries (count: 2):
compound	testTarget	category
O=C1CN(O)C(c2ccccc2)=c2cc(Cl)ccc2=N1	CP201	No
CC(C)Nc1ccc(Nc2ccccc2)cc1	CP201	Yes

What was the test verdict on C[N+]1(C)CCCCC1COC(=O)C(O)(c1ccccc1)c1ccccc1 (stereo not drawn) ?
No

====

Assay: Primary fluorescence-based thiol-reactive (MSTI) qHTS assay for identification of artifact compounds. (AID 1845221);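 also: thiol-reactive compounds lower the probe fluorescence signal; nearly all actives have a fitted effect of over 65% in size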
Settings: MSTI thiol-reactivity probe, 1 h; series mostly up to 53.8 µM
Description: PI: Alexander Tropsha Ph.D. UNC Eshelman School of Pharmacy University of North Carolina, Chapel Hill, North Carolina Hits from high-throughput screening (HTS) of chemical libraries are often false positives due to their interference with the assay detection technology. […] Using these curated datasets, we developed and validated several Quantitative Structure-Interference Relationship (QSIR) models to predict nuisance behavior. […]
Records with an inconclusive call do not appear. Activity calls are given as the source filed them. The call rests on the fitted dose curve; in most records, active means well fitted inhibition curve with a large enough effect; inconclusive means small, poorly fitted or top-dose-only effect; inactive means no such curve, though single readings can be large or run the other way.
experimentalReadout: activity change, negative = thiol reactive

compound	observedResult
C[C@H]1O[C@@H](O[C@H]2C[C@@H](O)[C@]3(CO)C4C(CC[C@]3(O)C2)[C@@]2(O)CC[C@H](C3=CC(=O)OC3)[C@@]2(C)C[C@H]4O)[C@@H](O)[C@@H](O)[C@H]1O (stereo partly drawn)	inactive
CC1=C2C(=O)C3[C@@H](CC=C4C[C@@H](O)CC[C@@]43C)[C@@H]2CC[C@]12O[C@@H]1C[C@H](C)CN[C@H]1[C@H]2C (stereo partly drawn)	inactive
C[C@H]1C(=O)O[C@H]2[C@H](O)[C@]34C5OC(=O)[C@]3(O[C@@H]3OC(=O)[C@H](O)C34[C@H](C(C)(C)C)[C@H]5O)C12O (stereo partly drawn)	inactive

====

Target: DNA repair nuclease/redox regulator APEX1 (Homo sapiens) (UniProt P27695)
Sequence (P27695 whole entry, looked up): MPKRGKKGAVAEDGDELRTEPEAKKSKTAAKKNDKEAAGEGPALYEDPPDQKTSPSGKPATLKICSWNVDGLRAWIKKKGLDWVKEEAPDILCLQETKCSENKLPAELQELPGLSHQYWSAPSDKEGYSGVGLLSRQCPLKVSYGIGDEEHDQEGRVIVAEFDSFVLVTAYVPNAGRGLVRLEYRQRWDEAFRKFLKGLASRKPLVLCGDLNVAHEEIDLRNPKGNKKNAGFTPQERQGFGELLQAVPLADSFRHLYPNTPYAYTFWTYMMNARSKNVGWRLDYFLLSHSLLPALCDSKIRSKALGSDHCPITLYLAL
Test: qHTS Validation Assay for Inhibitors of the Human Apurinic/apyrimidinic Endonuclease 1 (APE1) (AID 1705)
Conditions: purified APE1 endonuclease activity, fluorescence, titration; series mostly up to 57.1 µM
Results filed as inconclusive are left out. Activity calls are given as the source filed them. The call rests on the fitted dose curve; in most records, active means well fitted inhibition curve with a large enough effect; inconclusive means small, poorly fitted or top-dose-only effect; inactive means flat fitted curve, though single readings scatter.
Please state which outcome applies, choosing from label 1 (active), label 0 (inactive)

molecule	testTarget	category
O=[N+]([O-])c1ccc2nc(N3CCNCC3)ccc2c1	DNA repair nuclease/redox regulator APEX1 (Homo sapiens) (UniProt P27695)	label 0

What was the test verdict on CCCN(CCC)[C@@H]1CCc2cccc(O)c2C1 ?
label 0

What was the test verdict on CC(C)(C)c1cc(C=C(C#N)C#N)cc(C(C)(C)C)c1O ?
label 0

What was the test verdict on COc1ccc2c(c1)/C(=C/c1cnc[nH]1)C(=O)N2 ?
label 0

What was the test verdict on CN1C2CCC1CC(OC(c1ccccc1)c1ccccc1N)C2 (centres undefined) ?
label 0

What was the test verdict on O=[N+]([O-])c1cc(O)c(O)c([N+](=O)[O-])c1 ?
label 0

What was the test verdict on NCC(O)c1cc(O)c(O)cc1F (centres undefined) ?
label 1

What was the test verdict on COc1ccc2c(c1OC)C(=O)OC2C1c2cc3c(cc2CCN1C)OCO3 (centres undefined) ?
label 0

What was the test verdict on NC(=O)COc1c(F)cc(SCCNS(=O)(=O)c2ccccc2)cc1F ?
label 0

What was the test verdict on COC(=O)N1CCN(C(=O)Cc2ccc(Cl)c(Cl)c2)C(CN2CCCC2)C1 (centres undefined) ?
label 0

What was the test verdict on N#CC(C#N)=Cc1cc(O)c(O)c(O)c1 ?
label 0

What was the test verdict on Oc1ccc2c3c1O[C@H]1c4[nH]c5ccccc5c4C[C@@]4(O)C(C2)N(CC2CC2)CCC314 (some centres undefined) ?
label 0

What was the test verdict on Cc1o[nH]c(=O)c1CC(N)C(=O)O (centres undefined) ?
label 0

What was the test verdict on NC(=O)CI ?
label 0

What was the test verdict on C[C@]12Cc3cn4c(nc3C=C1CCC1C2CC[C@@]2(C)[C@H]1CC[C@@]2(O)C#N)nc1ccccc14 (some centres undefined) ?
label 0

What was the test verdict on CC12NC(Cc3ccccc31)c1ccccc12 (centres undefined) ?
label 0

What was the test verdict on N[C@@H](CCl)C(=O)O ?
label 0

What was the test verdict on COc1cc(CC(C)N)c(OC)cc1I (centres undefined) ?
label 0

What was the test verdict on C[N+](C)(C)CC#CCOC(=O)Nc1cccc(Cl)c1 ?
label 0
